Tested on: HCT116
method.summary: efficacy (fitted maximal change in viability relative to DMSO control); higher = less cytotoxic (negative = loss of viability)
recorded.conditions: 48 h
Entries are grouped by efficacy into these classes: lower bin: < -80%; middle bin: ≥ -80% and < -30%; upper bin: ≥ -30%

[
  {
    "compound": "Nc1nc(N)c2nc(-c3cccc(O)c3)c(-c3cccc(O)c3)nc2n1",
    "system.name": "HCT116",
    "label.value": "upper bin"
  },
  {
    "compound": "CC(C)(C)NC(=O)Nc1cccc(Nc2ncc(F)c(NC(C)(C)CO)n2)c1 [Bayer-18]",
    "system.name": "HCT116",
    "label.value": "middle bin"
  },
  {
    "compound": "C[N]1N=CN=C1[C@@H]2[C@H](NC3=CC(=CC4=C3\\C2=N/NC4=O)F)C5=CC=C(F)C=C5 [BMN-673]",
    "system.name": "HCT116",
    "label.value": "upper bin"
  },
  {
    "compound": "C[S+]([O-])(=O)NC1=CC2=C(C=C1OC3=CC=CC=C3)C(=O)\\C(=C/O2)NC=O [Iguratimod]",
    "system.name": "HCT116",
    "label.value": "upper bin"
  },
  {
    "compound": "CC1Oc2cc(cnc2N)-c2c(nn(C)c2C#N)CN(C)C(=O)c2ccc(F)cc21 (configuration not stated) [Lorlatinib]",
    "system.name": "HCT116",
    "label.value": "middle bin"
  },
  {
    "compound": "O=C1\\C=C/C=C2/[C@H]3CNC[C@H](C3)CN12 [Cytisine]",
    "system.name": "HCT116",
    "label.value": "upper bin"
  },
  {
    "compound": "Cn1c(CCCCCCC(=O)NO)nc2cc(N(CCCl)CCCl)ccc21 [Tinostamustine]",
    "system.name": "HCT116",
    "label.value": "lower bin"
  },
  {
    "compound": "CN(C)CCN(C)C(=O)c1ccc(NC(=O)Nc2ccc(-c3nc(N4CCOCC4)c4ccn(CC(F)(F)F)c4n3)cc2)cc1",
    "system.name": "HCT116",
    "label.value": "lower bin"
  },
  {
    "compound": "Oc1cc(O)cc(/C=C/c2ccc(O)c(O)c2)c1 [Piceatannol]",
    "system.name": "HCT116",
    "label.value": "middle bin"
  },
  {
    "compound": "COc1cc(CNC(=O)CCCC/C=C/C(C)C)ccc1O [Capsaicin]",
    "system.name": "HCT116",
    "label.value": "upper bin"
  },
  {
    "compound": "C[C@@H]1COCCN1C\\2=C\\C(=O)N\\3CC[C@H](N(CC4=CN=CC(=C4)Cl)C3=N2)C(F)(F)F [SAR-405]",
    "system.name": "HCT116",
    "label.value": "upper bin"
  },
  {
    "compound": "COC1=CC(c2cc3ccccc3[nH]2)=N/C1=C/c1[nH]c(C)cc1C [Obatoclax]",
    "system.name": "HCT116",
    "label.value": "lower bin"
  },
  {
    "compound": "COc1ccc2c(c1)CC[C@@H](CN(C)CC(=O)O)[C@H]2c1ccccc1",
    "system.name": "HCT116",
    "label.value": "upper bin"
  },
  {
    "compound": "Cc1ccc(NC(=O)c2ccc(CN3CCNCC3)cc2)cc1Nc1nccc(-c2cccnc2)n1",
    "system.name": "HCT116",
    "label.value": "lower bin"
  },
  {
    "compound": "Cc1c(NC(=O)OCC2COCCN2)cn2ncnc(Nc3ccc4c(cnn4Cc4cccc(F)c4)c3)c12 (configuration not stated)",
    "system.name": "HCT116",
    "label.value": "lower bin"
  },
  {
    "compound": "Cc1nnc(C(C)C)n1C1CC2CCC(C1)N2CCC(NC(=O)C1CCC(F)(F)CC1)c1ccccc1 (configuration not stated) [Celsentri (Maraviroc)]",
    "system.name": "HCT116",
    "label.value": "upper bin"
  },
  {
    "compound": "N=C(N)c1ccc(OCCCCCOc2ccc(C(=N)N)cc2)cc1 [Pentamidine isethionate]",
    "system.name": "HCT116",
    "label.value": "middle bin"
  },
  {
    "compound": "Cc1cc(C)cc(Oc2ccc(CNC(=O)[C@H](C)N)cc2C)c1 [SGC-2085]",
    "system.name": "HCT116",
    "label.value": "lower bin"
  },
  {
    "compound": "O=C(NCc1ccc([S+](=O)([O-])c2cccc(C(F)(F)F)c2)cc1)c1cnc2[nH]ncc2c1 [GNE-618]",
    "system.name": "HCT116",
    "label.value": "lower bin"
  },
  {
    "compound": "CN[C@@H]1C[C@H]2O[C@@](C)([C@@H]1OC)n1c3ccccc3c3c4c(c5c6ccccc6n2c5c31)C(=O)N[C@H]4O [7-Hydroxystaurosporine]",
    "system.name": "HCT116",
    "label.value": "lower bin"
  },
  {
    "compound": "CN1CCN(CC1)C2=NC3=C(C=CC=C3)C(=N2)C/4=C(/C(=O)NC4=O)C5=C[NH]C6=C5C=CC=C6 [Sotrastaurin]",
    "system.name": "HCT116",
    "label.value": "lower bin"
  },
  {
    "compound": "Cc1nc(Nc2n[nH]c3c2CN(C(=O)N[C@H](CN(C)C)c2ccccc2)C3(C)C)c2sccc2n1",
    "system.name": "HCT116",
    "label.value": "middle bin"
  },
  {
    "compound": "COc1cc2c(cc1OC)C1CC(=O)C(CC(C)C)CN1CC2 (configuration not stated) [Tetrabenazine]",
    "system.name": "HCT116",
    "label.value": "middle bin"
  },
  {
    "compound": "O=C(NC1CCNCC1)c1n[nH]cc1NC(=O)c1c(Cl)cccc1Cl [AT-7519]",
    "system.name": "HCT116",
    "label.value": "middle bin"
  },
  {
    "compound": "CC\\1=C(C(\\N=C(/N1)C2=CC(=NC=C2)Cl)C3=C(F)C=C(Cl)C=C3)/C(=O)NC4=C(F)C=C5[NH]N=CC5=C4 (configuration not stated) [GSK-25]",
    "system.name": "HCT116",
    "label.value": "lower bin"
  },
  {
    "compound": "CCOC(=O)\\C1=C\\[C@@H](OC(CC)CC)[C@H](NC(C)=O)[C@@H](N)C1 [Oseltamivir phosphate]",
    "system.name": "HCT116",
    "label.value": "upper bin"
  },
  {
    "compound": "CCC1(C)CC(=O)NC1=O (configuration not stated) [Ethosuximide]",
    "system.name": "HCT116",
    "label.value": "upper bin"
  },
  {
    "compound": "Cn1cc(-c2ccc3ncc(Cc4ccc5ncccc5c4)n3n2)cn1 [NVP-BVU-972]",
    "system.name": "HCT116",
    "label.value": "middle bin"
  },
  {
    "compound": "CCNC(=O)C[C@@H]1\\N=C(C2=CC=C(Cl)C=C2)/C3=C(C=CC(=C3)OC)[N]4C(=NN=C14)C [I-BET762]",
    "system.name": "HCT116",
    "label.value": "middle bin"
  },
  {
    "compound": "F\\C1=C\\N(C2CCCO2)C(=O)NC1=O (configuration not stated) [Tegafur]",
    "system.name": "HCT116",
    "label.value": "upper bin"
  },
  {
    "compound": "CC(C)(C)c1[nH]cnc1/C=c1\\[nH]c(=O)/c(=C/c2ccccc2)[nH]c1=O [Plinabulin]",
    "system.name": "HCT116",
    "label.value": "middle bin"
  }
]

----------
System: HCT116;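 also: Luminescence-based viability readout, five doses per compound, normalized against on-plate DMSO and empty-well controls, followed by dose-response curve fitting for every drug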
method.summary: efficacy (fitted maximal change in viability relative to DMSO control); higher = less cytotoxic (negative = loss of viability)
recorded.conditions: 48 h
Counter-ions that a name gives are not always drawn.

[
  {
    "molecule": "CCC(=O)NC[C@H](Cc1ccc(OCCc2nc(-c3ccccc3)oc2C)cc1)N/C(C)=C\\C(=O)c1ccc(C(F)(F)F)cc1 [GW-6471]",
    "unit.spec": "%",
    "efficacy": -30.2
  },
  {
    "molecule": "Nc1cccc([S+](=O)([O-])N2CCCN([S+](=O)([O-])c3ccc4c(c3)OCCO4)CC2)c1 [DASA-58]",
    "unit.spec": "%",
    "efficacy": -59.9
  },
  {
    "molecule": "C/C(=C\\c1csc(C)n1)[C@@H]1C[C@@H]2O[C@]2(C)CCC[C@H](C)[C@H](O)[C@@H](C)C(=O)C(C)(C)[C@@H](O)CC(=O)O1 [Epothilone B]",
    "unit.spec": "%",
    "efficacy": -49.2
  },
  {
    "molecule": "Clc1ccc(Cn2c(CN3CCCC3)nc3ccccc32)cc1 [Clemizole hydrochloride]",
    "unit.spec": "%",
    "efficacy": -93.1
  },
  {
    "molecule": "COc1ccc(F)c(F)c1C(=O)c1cnc(NC2CCN([S+](C)(=O)[O-])CC2)nc1N [R-547]",
    "unit.spec": "%",
    "efficacy": -67.8
  },
  {
    "molecule": "OC(=O)\\C1=C\\N(C2=CC=C(F)C=C2)C3=C(C=C(F)C(=C3)N4CCNCC4)C1=O [Sarafloxacin hydrochloride]",
    "unit.spec": "%",
    "efficacy": 14
  },
  {
    "molecule": "CN1CCN(CC1)\\C2=N\\C3=C(NC4=C2C=CC=C4)C=CC(=C3)Cl [Clozapine]",
    "unit.spec": "%",
    "efficacy": -99.6
  }
]
